system.under.test: T1, human VEGF-A residues 27-191 of Accession #AAV38412 (human, UniProt P15692 27-191)
T1 construct: range 27-191
assay.info: BIAcore SPR
reported.metric: koff (s⁻¹)

INSERT INTO measurements (binder, reported_metric, measured_value) VALUES
  ('95 (antibody, human IgG1, V domains shown) VH: EVQLVESGGGLVQPGGSLRLSCAASGYTFTNYGMNWVRQAPGKGLEWVGWINTYTGEPTYAADFKRRFTFSLDTSKSTAYLQMNSLRAEDTAVYYCAKYPDYYGSSHWYFDVWGQGTLVTVSS VL: DIQMTQSPSSLSASVGDRVTITCSASQDISNYLNWYQQKPGKAPKVLIYFTSSLHSGVPSRFSGSGSGTDFTLTISSLQPEDFATYYCQQYSTVPWTFGQGTKVEIKR', 'koff', 0.000351),
  ('N31 W (anti-VEGF IgG) (antibody, V domains shown, copies: 2 + 2) VH: EVQLVESGGGLVQPGGSLRLSCAASGYTFTWYGMNWVRQAPGKGLEWVGWINTYTGEPTYAADFKRRFTFSLDTSKSTAYLQMNSLRAEDTAVYYCAKYPHYYGSSHWYFDVWGQGTLVTVSS VL: DIQMTQSPSSLSASVGDRVTITCSASQDISNYLNWYQQKPGKAPKVLIYFTSSLHSGVPSRFSGSGSGTDFTLTISSLQPEDFATYYCQQYSTVPWTFGQGTKVEIK', 'koff', '3.42e-05'),
  ('T28 G (anti-VEGF IgG) (antibody, V domains shown, copies: 2 + 2) VH: EVQLVESGGGLVQPGGSLRLSCAASGYGFTNYGMNWVRQAPGKGLEWVGWINTYTGEPTYAADFKRRFTFSLDTSKSTAYLQMNSLRAEDTAVYYCAKYPHYYGSSHWYFDVWGQGTLVTVSS VL: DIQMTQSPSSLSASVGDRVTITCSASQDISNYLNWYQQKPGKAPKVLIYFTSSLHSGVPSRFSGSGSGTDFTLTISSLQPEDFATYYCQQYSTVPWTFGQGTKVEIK', 'koff', '4.97e-05');
